assay: Inhibition of recombinant serine beta lactamase KPC-2 (unknown origin) expressed in Escherichia coli BL21 (DE3) cells using meropenem as substrate by spectrometric analysis; parameters: species or system Bacteria
pIC50: −log10 of the molar value.
Criterion: pIC50 meeting or surpassing 6. Met: condition met. Not met: condition not met.

A selection of reference data follows.
compound: CCOC(=O)ONC(=O)CCc1ccccc1
discrete label: condition not met
//
compound: O=C(CCCc1ccccc1)NOC(=O)OCc1ccccc1
discrete label: condition met
//
compound: CCCCCOC(=O)ONC(=O)CCc1ccccc1
discrete label: condition not met
//
compound: CC(=O)NOC(=O)OCc1ccccc1
discrete label: condition not met
//
compound: CCCCCOC(=O)ONC(=O)C(CC)c1ccccc1 (stereo unspecified)
discrete label: condition not met
//
compound: CC(C)COC(=O)ONC(=O)CCc1ccccc1
discrete label: condition not met
//
compound: O=C(CC(c1ccccc1)c1ccccc1)NOC(=O)OCc1ccccc1
discrete label: condition not met
//
compound: CCOC(=O)ONC(=O)C(CC)c1ccccc1 (stereo unspecified)
discrete label: condition not met

Kindly review the next compound as well.
Q: Please tell me: is the compound `O=C(CCC1CCCCC1)NOC(=O)OCc1ccccc1` at or over 6 in terms of pIC50?
A: condition met

Data origin, for the record: ChEMBL document CHEMBL5518172
